# TARGET_OR_TEST_SYSTEM: Inosine-5'-monophosphate dehydrogenase 1 (Homo sapiens)
# Sequence (P20839 whole entry): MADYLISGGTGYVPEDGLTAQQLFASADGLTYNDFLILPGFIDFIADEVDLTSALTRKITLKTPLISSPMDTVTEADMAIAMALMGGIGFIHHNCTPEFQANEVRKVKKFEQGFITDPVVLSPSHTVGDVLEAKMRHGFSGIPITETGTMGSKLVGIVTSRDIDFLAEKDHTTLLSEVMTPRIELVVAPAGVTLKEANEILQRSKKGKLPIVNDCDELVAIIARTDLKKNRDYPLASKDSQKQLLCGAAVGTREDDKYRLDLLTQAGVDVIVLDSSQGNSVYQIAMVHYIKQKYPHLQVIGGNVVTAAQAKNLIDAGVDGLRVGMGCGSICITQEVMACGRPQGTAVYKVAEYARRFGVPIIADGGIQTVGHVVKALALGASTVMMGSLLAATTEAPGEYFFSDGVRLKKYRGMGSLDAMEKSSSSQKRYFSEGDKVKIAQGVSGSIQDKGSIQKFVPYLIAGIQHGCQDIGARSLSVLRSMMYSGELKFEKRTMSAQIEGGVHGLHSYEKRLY
pKi: −log10 of the molar value.
MEASURED_ATTRIBUTE: pKi

a. COc1cc(OC)c(-c2cnco2)cc1C/C=C(\C)CCC(=O)O (stereo in doubt; 3-E)
b. COc1cc(OC)c(-c2cnco2)cc1C/C=C(/C)CCC(=O)O
### Prompt Sorting by pKi in descending order, would a or b appear first? When you have decided, please share the label of that item.
### Response a
(a: 4.99, b: 4.01)

###

# TARGET_OR_TEST_SYSTEM: Inosine-5'-monophosphate dehydrogenase 2 (Homo sapiens, UniProt P12268)
MEASURED_ATTRIBUTE: Ki (µM)

> print(dat)
                                compound                     target.or.test.system  quantitative.readout
1  COc1ccc(C/C=C(\C)CCC(=O)O)cc1-c1cnco1  Inosine-5'-monophosphate dehydrogenase 2 (Homo sapiens, UniProt P12268)                   8.7

P. COc1cc(OC)c(-c2cnco2)cc1C/C=C(/C)CCC(=O)O
Q. COc1cc(OC)c(-c2cnco2)cc1C/C=C(\C)CCC(=O)O (stereo in doubt; 3-E)
### Prompt Rank P against Q by their Ki values and give the higher one. Please indicate the selected item by its label.
### Response P
